Where these numbers come from: patent US4371532A

Tested on: P. aeruginosa CN-5
protocol-text: Protection of mice from infection caused by Pseudomonas aeruginosa CN-5
Type: in vivo
test-settings: CN5, ip, inoculation = 7 × 10^3, two subc. inj. (mg/kg each) 1 and 5 hrs after intraperitoneal inoculation
Description: Five representative compounds in the preceding examples are assayed for protection of mice from infection caused by Pseudomonas aeruginosa to give the effects as in the following table. | two subc. inj. (given mg/kg each) 1 and 5 | hrs after intraperitoneal inoculation | *inoculation = 7 × 10^3 -
For each of the compounds below, state its ED50.
Numbers only, in mg/kg.

Observe how each entry below is paired with its result.
• CCC(C(=O)O)C(=O)NC1(OC)C(=O)N2C(C(=O)O)=C(CSc3nncs3)COC21 (centres unmarked) [compound 4] = 32.5
• COC1(NC(=O)C(C)C(=O)O)C(=O)N2C(C(=O)O)=C(CSc3nnnn3C)COC21 (centres unmarked) [compound 1] = 22.3
• CCC(C(=O)O)C(=O)NC1(OC)C(=O)N2C(C(=O)O)=C(CSc3nnnn3C)COC21 (centres unmarked) [compound 2] = 22.2

Your task in this section: give ED50 for each listed record.
1. COC1(NC(=O)C(C(=O)O)c2ccc(O)cc2)C(=O)N2C(C(=O)O)=C(CSc3nnnn3C)COC21 (centres unmarked) [Reference, reference compound]
2. COC1(NC(=O)C(C)C(=O)O)C(=O)N2C(C(=O)O)=C(CSc3nncs3)COC21 (centres unmarked) [compound 3]

(A)
44.5
33.8

---

System: P. aeruginosa PS-24
protocol-text: Protection of mice from infection caused by Pseudomonas aeruginosa PS-24
Type: in vivo
test-settings: PS24, ip, inoculation = 1 × 10^4, two subc. inj. (mg/kg each) 1 and 5 hrs after intraperitoneal inoculation
parameter-measured: ED50 (mg/kg)
Answers are plain numbers, in mg/kg.

• COC1(NC(=O)C(C)C(=O)O)C(=O)N2C(C(=O)O)=C(CSc3nnnn3C)COC21 (centres unmarked) = 11.1
• COC1(NC(=O)C(C)C(=O)O)C(=O)N2C(C(=O)O)=C(CSc3nncs3)COC21 (centres unmarked) = 12.6
• COC1(NC(=O)C(C(=O)O)c2ccc(O)cc2)C(=O)N2C(C(=O)O)=C(CSc3nnnn3C)COC21 (centres unmarked) [Reference, reference compound] = 20.4

// each listed molecule needs a value for ED50
1. CCC(C(=O)O)C(=O)NC1(OC)C(=O)N2C(C(=O)O)=C(CSc3nnnn3C)COC21 (centres unmarked)
2. CCC(C(=O)O)C(=O)NC1(OC)C(=O)N2C(C(=O)O)=C(CSc3nncs3)COC21 (centres unmarked)

(A)
17.7
15.5

---

System: Escherichia coli EC-14
protocol-text: Minimal inhibitory concentration in vitro by serial dilution method on Mueller Hinton agar
Format: cell-based
test-settings: EC14, Het=Tetr, disodium salts (10), E. coli EC-14, Mueller Hinton agar
parameter-measured: MIC (mg/L)
Answers are plain numbers, in mg/L.

Observe how each entry below is paired with its result.
* COC1(NC(=O)C(C)C(=O)O)C(=O)N2C(C(=O)O)=C(CSc3nnnn3C)COC21 (centres unmarked) | 0.2
* CCCCCCC(C(=O)O)C(=O)NC1(OC)C(=O)N2C(C(=O)O)=C(CSc3nnnn3C)COC21 (centres unmarked) | 12.5
* CCCC(C(=O)O)C(=O)NC1(OC)C(=O)N2C(C(=O)O)=C(CSc3nnnn3C)COC21 (centres unmarked) | 0.1
* CCC(C(=O)O)C(=O)NC1(OC)C(=O)N2C(C(=O)O)=C(CSc3nnnn3C)COC21 (centres unmarked) | 0.1
* C=CCC(C(=O)O)C(=O)NC1(OC)C(=O)N2C(C(=O)O)=C(CSc3nnnn3C)COC21 (centres unmarked) | 0.2

Could you report MIC for every entry in the following list?
1. COC1(NC(=O)C(CC(C)C)C(=O)O)C(=O)N2C(C(=O)O)=C(CSc3nnnn3C)COC21 (centres unmarked)
2. COC1(NC(=O)C(C(=O)O)C(C)C)C(=O)N2C(C(=O)O)=C(CSc3nnnn3C)COC21 (centres unmarked)
3. COC1(NC(=O)CC(=O)O)C(=O)N2C(C(=O)O)=C(CSc3nnnn3C)COC21 (centres unmarked)

(A)
1. 0.39
2. 0.39
3. 1.56
